Provenance of the data: PubChem BioAssay (NCI)

Tested on: MDA-MB-231 breast
methodSummary: NCI-60 one-dose screen, 48 h (100 = growth as untreated, 0 = no growth, -100 = all killed)
protocolConditions: 10 µM unless noted
Compounds without any hit were thinned out: in the full panel of roughly 83,000, 20% have a hit.
# growth per entry
Please state the figure in %; there is no need to write the unit.

// known answers, use as guide
CCOC(=O)C1C(=O)C(=O)N(C(C)C)C1C(=O)OCC (stereo not given) : 103
COc1cc(-c2nn(-c3ccc(NC(=O)c4ccc(Cl)c(Cl)c4)cc3)cc2-c2ccncc2)ccc1Cl : 54.9
CCS(=O)(=O)OCCO[C@H]1Cc2cc3ccc(=O)oc3cc2OC1(C)C : 115
CCCCCCNC(=O)Oc1ccc(/C(=C(/C)Cc2ccc(OC)cc2)c2ccc(OCCN3CCCCC3)cc2)cc1 : 84.5
CC1=C[C@@H]2c3c(c(O)c(O)c4oc5cc(O)cc(O)c5c(=O)c34)[C@@H](c3cc(O)c(O)c4oc5cc(O)cc(O)c5c(=O)c34)[C@@H]2C(C)(C)C1 : -38.2
O=P(OCCCl)(OCCCl)C(O)c1ccccc1Cl (stereo not given) : 108
CC(=O)/C(=C/c1ccc(-c2ccccc2)cc1)C(=O)c1ccccc1 : 92.5
CC(=O)NCCN : 101
COc1ccccc1C(=O)Nc1cccc(-c2cc(=O)c3c(OC)c(OC)c(OC)cc3o2)c1 : 51.3
CCOC(=O)c1c(C)oc2ncnc(Nc3ccc(NC(=O)Nc4cccc(Cl)c4)cc3)c12 : -18.7

Quick note, growth for Cc1nc(N)sc1C(=O)NCCO landed at 101

Quick note, growth for CCOc1ccc(Br)cc1/C=C(\C#N)c1ccc([N+](=O)[O-])cc1 landed at 61.2

Quick note, growth for COc1ccc(/C=C2\CCCC3=C2N=C2SC=NN2C3c2ccc(OC)c(OC)c2)cc1OC (stereo not given) landed at 55.2

Quick note, growth for COc1cccc(Cn2cc3c(c2)-c2oncc2CC3)c1 landed at 5.68

Quick note, growth for COc1cc(-c2nc(/C=C3/C(=O)Nc4ccccc43)c3ccccn23)cc(OC)c1OC landed at 40.7

Quick note, growth for Cc1ccnc2c(NC(C)CCCN)cc(O)c(O)c12 (stereo not given) landed at 75.2

Quick note, growth for CC1=NN(c2cccc(Cl)c2)C(=O)/C1=C\c1cn(-c2nc(N3CCOCC3)nc(N3CCOCC3)n2)c2ccccc12 landed at 112

Quick note, growth for Cc1nc(NC(=S)Nc2ccc(F)cc2)sc1C(=O)NNC(=S)Nc1ccc(F)cc1 landed at 77.9

Quick note, growth for CC1(C)NCCC[C@]2(C)[C@H]3CC=C4[C@@H]5C[C@](C)(COC(=O)c6ccccc6C(=O)O)CC[C@]5(C)CC[C@@]4(C)[C@]3(C)CC[C@@H]12 landed at 84

Quick note, growth for O=C(/C=C1\C(=O)N(Cc2ccccc2)c2ccccc21)c1ccc(OCCN2CCCCC2)cc1 landed at 45.9

----------
Test system: HCC-2998 colon
methodSummary: NCI-60 one-dose screen, 48 h
protocolConditions: 10 µM unless noted
This is part of a sample that, as a whole, favours compounds with a hit. Of some 83,000 tested, about 20% had one in any assay. Calls of active or inactive are those of the source. Rule for the calls: active = growth percent below 10; inactive = the rest.
# valid calls are true (1) (active), false (0) (inactive); nothing else

Past entries and their recorded results:
CC(=O)Nc1nc(C)c(C(=O)N/N=C/c2cccs2)s1 : false (0)
CC(=O)/C(=C\c1c(-c2ccccc2)[nH]c2ccccc12)S(=O)(=O)c1ccccc1 : true (1)
CC(=O)Nc1nc(C)c(C(=O)NNC(=O)Nc2ccccc2)s1 : false (0)
O=C1c2cc([N+](=O)[O-])ccc2-c2cc(Cl)c(NC(=O)C(F)(F)F)cc21 : false (0)
COCC(=O)NNc1[nH]c(-c2ccc(OC)cc2)cc1C#N : false (0)

# fetch the recorded call for CCCC(=O)NNc1[nH]c(-c2cc(OC)c(OC)c(OC)c2)cc1C(=O)OCC here
false (0)

# fetch the recorded call for COc1ccc(Cn2cc3c(c2-c2ccccc2)CCc2cnoc2-3)cc1OC here
false (0)

# fetch the recorded call for CNCCCNCCCCNCCCN1C(=O)c2ccc3c4c(ccc(c24)C1=O)C(=O)N(CCCNCc1ccccc1OC)C3=O here
false (0)

# fetch the recorded call for N#CC1=C(N2CCOCC2)NC2c3ccccc3Sc3ccccc3N2C1=N (stereo not given) here
false (0)

# fetch the recorded call for CCC1(CC)C(OC)NC(Br)=C(C#N)C1(C#N)C(N)=O (stereo not given) here
false (0)

# fetch the recorded call for CC(=O)c1nn(-c2ccc(C)cc2)cc1C(=O)c1cc2c(ccc3ccccc32)oc1=O here
false (0)

# fetch the recorded call for CN(C)CCOC(=O)C(C)(C)C here
false (0)

# fetch the recorded call for CCCCCCC(C)N(CC(C)(C)O)C(=O)c1ccc([N+](=O)[O-])cc1 (stereo not given) here
false (0)

# fetch the recorded call for COc1ccccc1C(=O)Nc1cccc(-c2cc(=O)c3c(OC)c(OC)c(OC)cc3o2)c1 here
false (0)

# fetch the recorded call for CCCCCCCCCCC1OC(C)CC(C)O1 (stereo not given) here
false (0)

----------
System: COLO 205 colon
methodSummary: NCI-60 one-dose screen, 48 h
protocolConditions: 10 µM unless noted
The panel holds about 83,000 compounds, 20% with a hit somewhere; the sample as a whole holds those more often. Activity calls are given as the source filed them. Rule for the calls: active = growth percent below 10; inactive = the rest.
# valid calls are active, inactive; nothing else

Past entries and their recorded results:
CCn1cnc(C[C@H](NC(=O)[C@@H](NC(=O)Nc2cc(C(F)(F)F)cc(C(F)(F)F)c2)C(C)C)C(=O)OC)c1 : active
O=C(/C=C\c1ccc(NCc2ccc(C(=O)O)cc2)cc1)CCl : inactive
CCOC(=O)NNc1[nH]c(-c2ccc(OC)cc2)cc1C#N : inactive
COC(=O)c1ccc2[nH]c(O)c(C(=Nc3ccc(N(C)C(=O)CN4CCN(C)CC4)cc3)c3ccc([N+](=O)[O-])cc3)c2c1 : inactive
Cc1ccc(CC(=O)O)c(C)c1 : inactive
COc1cc2cn3c4ccc(O)cc4[nH]c(=O)c3c2cc1OC : active
COc1ccc(C(=O)CN2C(=O)NC(c3ccccc3)(c3ccccc3)C2=O)cc1 : inactive
COc1cccc(Cn2cc3c(c2)-c2oncc2CC3)c1 : active
CCCCCCCCCCCCc1ccc([N+](CC)(CC)CC)cc1 : inactive
CCCCCCCCCCC(C[N+](C)(C)C/C=C/c1ccccc1)C(O)c1ccccc1 (configuration not stated) : active

# fetch the recorded call for Cc1[nH]n(C(=S)Nc2nc3cc(Cl)c(F)cc3s2)c(=O)c1N=Nc1ccc(F)c(Cl)c1 here
inactive

# fetch the recorded call for O=C(CN1CCN(c2cccc(Cl)c2)CC1)N1CCN(c2nnc(-c3ccc(Cl)cc3)c(-c3ccc(Cl)cc3)n2)CC1 here
inactive

# fetch the recorded call for Oc1ccc(N=Nc2ccc(N=Nc3ccccc3)cc2)cc1 here
inactive

# fetch the recorded call for CCCCCCCCCCN1CC2CCCCC2C1 (configuration not stated) here
inactive

# fetch the recorded call for CCOC(=O)CCCCCCCCC(=O)OCC here
inactive

# fetch the recorded call for O=C(N/N=C\c1ccc(-c2ccc(Br)cc2)o1)c1cc2oc(-c3cccc(C(F)(F)F)c3)cc2[nH]1 here
inactive

# fetch the recorded call for COc1ccc(C2=C/C(=C\c3ccc(Cl)cc3)C(=O)NN2C(=S)NN)cc1 here
inactive

# fetch the recorded call for CC1CCCCC[N+]12CCCC2 (configuration not stated) here
inactive

# fetch the recorded call for N#CCCCCCCCCCCC#N here
inactive

# fetch the recorded call for O=C1c2cc([N+](=O)[O-])ccc2-c2cc(Cl)c(NC(=O)C(F)(F)F)cc21 here
inactive

# fetch the recorded call for CCCNC(=O)Oc1ccc(/C(=C(/C)Cc2ccc(OC)cc2)c2ccc(OCCN3CCCC3)cc2)cc1 here
inactive

# fetch the recorded call for O=C(CCC(=O)N(CCO)CCO)N(CCO)CCO here
inactive

----------
# growth per entry
Test system: MDA-MB-231 breast
methodSummary: NCI-60 one-dose screen, 48 h (100 = growth as untreated, 0 = no growth, -100 = all killed)
protocolConditions: 10 µM unless noted
Method: Cells are grown in 96 well plates and exposed to the test compound for 48 hours. Compounds are tested at a single concentration, which is 10^-5 M for most compounds. The reported endpoint is percent growth (GI% or GIPRCNT), where numbers from 0 - 100% represent growth inhibition, and numbers from -100% - 0 represent cell death. For example, a value of 40 represents 60% growth inhibition. A value of 0 means no net growth occurred over the course of the experiment. […]
Compounds without any hit were thinned out: in the full panel of roughly 83,000, 20% have a hit.
Please state the figure in %; there is no need to write the unit.

O=C(/C=C\c1ccccc1Cl)c1ccccc1 : 91.7
C=C1CCC2C3(C)COC(c4ccccc4)OC3CCC2(C)C1C/C=C1/C(=O)OCC1O (centres undefined) : 89.4
N#Cc1c2ncccc2c2nnc3cc(Cl)c(Cl)cc3n12 : 67

Here is another compound to look at.
Quick note, growth for C[C@]12CC[C@H]3[C@@H](CC[C@H]4C[C@@H](O)CC[C@@]43C)[C@@H]1CC(=O)C2 landed at 112
